B1: TRIM39 (parent)
chain: ERDFPCPVCRKTSRYRSLRPNRQL

Variants of: B1
run.description: protein stability index of a GFP-peptide fusion (GPS, HEK-293T) (PSI 1-6); higher = more stable;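 further: lentivirally expressed fusions sorted by FACS into six bins by GFP to DsRed ratio, PSI derived from sequencing read proportions per bin multiplied by bin number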
run.parameters: c terminus: a fixed tail appended
measurement.name: protein stability index

Solved cases (5 shown):
F4D 2.93
R14H 2.15
L18M 1.82
L18Q 2.39
T12M 2.36

Exercise: For P5Y , write its protein stability index.
Key: 2
